- assayExplanation: JC-1 mitochondrial signal, unstimulated HepG2 cells – cell-based, JC-1 fluorescence, 24 h, 100 nL compound, profiling panel (AID 1167); also: test concentration not given here
- assayContext: HepG2 mitochondrial potential, higher = more signal
# cutoff 0.7 applies to z-score; >= gives t, < gives f

The examples below pair each entry with its known result.
{"columns": ["molecule", "classification"],
 "data": [
  ["O=C1C[C@@](C(=O)NCc2ccccc2)(c2ccc([N+](=O)[O-])cc2)[C@@H](c2ccc(CO)cc2I)N1C1CCCCC1", "t"],
  ["COc1ccc([Si](C)(C)[C@H]2[C@H](CC(=O)N3CCC[C@H]3CO)O[C@@]3(C(=O)N(Cc4ccc(N5C(=O)c6cccc7cccc5c67)cc4)c4ccccc43)[C@@H]2C)cc1", "t"],
  ["C=C(C)[C@@H]1CC=C(C(O)C2C=CC3C(=O)N(C4CCCCC4)C(=O)C3N2Nc2ccc(OC)cc2)CC1 (stereo partly specified)", "f"],
  ["CCCN1C(=O)[C@@]2(Cc3ccccc3)N=C(c3ccc(OCCCO)cc3)O[C@H]2c2ccccc21", "f"]
]}

Turning now to a further record.
Exercise: For this molecule, is measured z-score 0.7 or higher? COCCOC(=O)N1C(=O)[C@@]2(c3cc(C#CC4(O)CCCCCC4)ccc31)[C@H](C(=O)N1CCc3cc(OC)c(OC)cc3C1)[C@H]1C(=O)O[C@H](c3ccccc3)[C@H](c3ccccc3)N1[C@@H]2c1ccccc1OCCO
Solution: t

---

- testSystem: Torsin-1A (Homo sapiens)
- assayExplanation: torsin A mutant lysate binding on microarrays – cell lysate, small-molecule microarray, COS7 lysate, 635/667 nm fluorescence, primary screen (AID 1150);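 also: score pools 667 nm emission and signal to noise measuring lysate protein binding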
- assayContext: COS7 hTOR1A mutant lysate, 635 nm fluorescence, higher = more signal
propertyLabel: composite z-score
One number for each entry.

Answer for every listed entry: what is its composite z-score? The entries follow.
1. CCN(CC)c1ccc(N2CC=CC34O[C@@H]5/C=C\CCCOC(=O)C5[C@H]3C(=O)N(CCCCCO)[C@@H]4C2=O)cc1 (stereo partly drawn)
2. COc1cc(C(O)C2C=CC3C(=O)N(C)C(=O)C3N2NC(=O)OC(C)(C)C)cc(OC)c1OC (stereo not drawn)

Solution:
-1.91
0.727

Exercise: Bench note: what composite z-score did Cc1cc(C)c(C(O)C2C=CC3C(=O)N(c4ccccc4)C(=O)C3N2Nc2ccccc2)c(C)c1 (stereo not drawn) show?
Solution: 0.329

---

- assayExplanation: inhibition of PAO1 biofilm formation – strain PAO1, LB-PBS medium, absorbance 600 nm, primary screen (AID 1176); also: test concentration not given here
- assayContext: P. aeruginosa PAO1 growth/biofilm, A600, 12 h; higher = more signal
# cutoff 0.6 applies to z-score; >= gives Criterion met, < gives Criterion not met

{"columns": ["compound", "classification"],
 "data": [
  ["O=C1c2ccccc2C(=O)C2CC([C@H]3Oc4ccccc4S(=O)(=O)N4CCC[C@@H]34)=CCC12 (stereo partly specified)", "Criterion not met"],
  ["COCCOC(=O)N1C(=O)[C@@]2(c3ccccc31)[C@H](c1ccc(OCCO)cc1)N1[C@H](c3ccccc3)[C@H](c3ccccc3)OC(=O)[C@H]1[C@@H]2C(=O)NC[C@H](O)c1ccccc1", "Criterion met"]
]}

Exercise: For this compound, is measured z-score 0.6 or higher? CC(C)CCC[C@@H](C)[C@H]1CC[C@@]2(C)C3=C(CC[C@]12C)[C@@]1(C)CC[C@H](OC(=O)C(C)(C)C)C(C)(C)C1CC3 (stereo partly specified)
Solution: Criterion met

---

- assayExplanation: probe aEGFR binding to arrayed compounds – biochemical, biotinylated probe, 635/667 nm fluorescence, primary screen (AID 1097);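 also: probe is a biotinylated anti-EGFR antibody binding compounds printed on slides; score combines fluorescence near 667 nm and signal to noise of each spot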
- assayContext: small-molecule microarray, higher = more signal
propertyLabel: composite z-score
Give bare numbers.

{"columns": ["compound", "composite z-score"],
 "data": [
  ["COc1ccccc1CN1C(=O)c2ccccc2[C@@H](C(=O)NCC(C)C)[C@@H]1c1ccc(CO)cc1", -0.0398]
]}

Answer for every listed entry: what is its composite z-score? The entries follow.
1. COCCOC(=O)N1C(=O)[C@@]2(c3ccccc31)[C@H](c1ccccc1OCCO)N1[C@H](c3ccccc3)[C@H](c3ccccc3)OC(=O)[C@H]1[C@@H]2C(=O)N1CCc2cc(OC)c(OC)cc2C1
2. COCCCNC(=O)[C@@]1(Cc2ccccc2N=[N+]=[N-])N=C(c2ccc(OCCCO)cc2)O[C@H]1c1ccccc1CN=[N+]=[N-]
3. O=C1OCC=C[C@H]2OC34C=CCN(CCN5CCOCC5)C(=O)[C@H]3N(CCCCCO)C(=O)[C@@H]4[C@@H]12 (stereo partly specified)
4. Cc1ccc(N2C(=O)c3ccccc3[C@](C)(C(=O)NC(C)C)[C@@H]2c2ccc(CO)cc2)nc1
5. [N-]=[N+]=NCc1ccccc1[C@H]1OC(c2ccc(OCCCO)cc2)=N[C@@]1(Cc1ccccc1N=[N+]=[N-])C(=O)N1CCCCC1

Solution:
1. 0.0556
2. 0.43
3. -0.0831
4. -0.36
5. 0.23

Answer for every listed entry: what is its composite z-score? The entries follow.
1. COC(=O)[C@@]1(Cc2ccccc2N=[N+]=[N-])N=C(c2ccc(OCCCO)cc2)O[C@H]1c1ccccc1
2. O=C1c2ccccc2[C@](Cc2ccccc2I)(C(=O)NCC(F)(F)F)[C@H](c2ccc(CO)cc2)N1Cc1ccccc1
3. COCCCNC(=O)[C@]1(Cc2ccccc2CN=[N+]=[N-])N=C(c2ccc(OCCCO)cc2)O[C@@H]1c1ccccc1CN=[N+]=[N-]
4. COC(=O)C(CC#Cc1ccc2c(c1)[C@]1(C(=O)N2)[C@H](c2ccc(OCCO)cc2)N2[C@H](c3ccccc3)[C@H](c3ccccc3)OC(=O)[C@H]2[C@@H]1C(=O)O)C(=O)OC
5. COC(=O)[C@@]1(Cc2ccc(F)cc2)[C@H]2c3cc(C(=O)N(C)C)n(CCSCCO)c3C[C@H]2CN1C(=O)c1ccccc1

Solution:
-0.115
-0.0679
0.332
0.374
-0.162

---

- testSystem: NADPH oxidase 2 (Homo sapiens)
- assayExplanation: compounds shifting NOX2 Amplex Red fluorescence – cell-based, HEK293-NOX2, PMA-stimulated, NOX inhibitor project, primary screen (AID 1159); also: test concentration not given here
- assayContext: 45 min, higher = more signal, called active from +8 up or from −8 down
propertyLabel: z-score
Answers are plain numbers.

Solved entries:
{"columns": ["chemSmiles", "propertyLabel", "recordedValue"],
 "data": [
  ["O=C(O)[C@]1(CCS(=O)(=O)c2ccccc2)N=C(c2ccc(OCCCO)cc2)O[C@@H]1c1ccccc1", "z-score", -0.298],
  ["COCCOC(=O)N1C(=O)[C@@]2(c3cc(C#CCC(C(=O)OC)C(=O)OC)ccc31)[C@H](c1ccc(OCCO)cc1)N1[C@H](c3ccccc3)[C@H](c3ccccc3)OC(=O)[C@H]1[C@@H]2C(N)=O", "z-score", 2.17],
  ["C[N+](C)(C)CCCCCCNC(=O)[C@@H]1C[C@@H]2C(=O)NCC(=O)N2[C@@H]1c1cccc(OCCO)c1", "z-score", -2.72],
  ["COCCOC(=O)N1C(=O)[C@@]2(c3cc(C#CCCO)ccc31)[C@H](C(=O)N1CCc3cc(OC)c(OC)cc3C1)[C@H]1C(=O)O[C@H](c3ccccc3)[C@H](c3ccccc3)N1[C@@H]2c1ccc(OCCO)cc1", "z-score", 1.35],
  ["O=C1O[C@H](c2ccccc2)[C@H](c2ccccc2)N2[C@H]1[C@@H](C(=O)NC[C@H](O)c1ccccc1)[C@]1(C(=O)Nc3ccccc31)[C@H]2c1ccccc1OCCO", "z-score", 1.23],
  ["[N-]=[N+]=Nc1ccccc1C[C@]1(C(=O)NCCN2CCOCC2)N=C(c2ccc(OCCCO)cc2)O[C@H]1c1ccccc1N=[N+]=[N-]", "z-score", -2.69]
]}

// next entry
Exercise: Bench note: what z-score did COCCOC(=O)N1C(=O)[C@@]2(c3cc(C#CC4(O)CCCCCC4)ccc31)[C@H](C(=O)N1CCN(c3ncccn3)CC1)[C@H]1C(=O)O[C@H](c3ccccc3)[C@H](c3ccccc3)N1[C@@H]2c1ccc(O)cc1 show?
Solution: 1.43

---

- assayExplanation: JC-1 mitochondrial signal, unstimulated HepG2 cells – cell-based, JC-1 fluorescence, 24 h, 100 nL compound, profiling panel (AID 1167); also: test concentration not given here
- assayContext: HepG2 mitochondrial potential, higher = more signal
What z-score was measured for each of the following?
Numbers only.

Solved entries:
{"columns": ["compound", "z-score"],
 "data": [
  ["CC(=O)NCCCC[C@@H]1NC(=O)[C@H]2C[C@@H](C(=O)NCCCCCN)[C@@H](c3cccc(OCCO)c3)N2C1=O", 0.0469],
  ["CCCc1cc2c(n1Cc1ccc(OC)cc1)C(C)C1CN(C(=O)c3ccccc3)C(C)(C(=O)OC)C21 (stereo not given)", 2.08],
  ["COc1ccc(C(=O)Nc2ccc(CN3C(=O)[C@@]4(O[C@@H](CC(=O)N5Cc6ccccc6C[C@H]5CO)[C@H]([Si](C)(C)c5ccc(OC)cc5)[C@H]4C)c4ccccc43)cc2)cc1", 0.489]
]}

Answer for every listed entry: what is its z-score? The entries follow.
1. COCCOC(=O)N1C(=O)[C@@]2(c3cc(C#Cc4ccc(OC)cc4)ccc31)[C@H](C(=O)N1CCc3cc(OC)c(OC)cc3C1)[C@H]1C(=O)O[C@H](c3ccccc3)[C@H](c3ccccc3)N1[C@@H]2c1ccc(OCCO)cc1
2. NC(=O)[C@@H]1[C@H]2C(=O)O[C@H](c3ccccc3)[C@H](c3ccccc3)N2[C@H](c2ccccc2OCCO)[C@@]12C(=O)Nc1ccc(C#CCCO)cc12

Solution:
1: -0.999; 2: -0.945
